system: CD2F1 mice, L1210 leukemia ip, survival T/C; assay: NCI In Vivo Anticancer Drug Screen. Data for tumor model L1210 Leukemia (intraperitoneal) in CD2F1 (CDF1) mice; details: endpoint: mean survival time; dose: 200.0 mg/kg/injection; schedule: Q01DX009 (ip); vehicle: saline with Tween-80; higher = longer survival
Inconclusive results and toxic doses are left out.
reported endpoint: T/C

compound | observed value
O=C(O)c1cccc(COc2ccc([N+](=O)[O-])cc2Cl)c1 | 93 % of control
c1cc2c3c(cccc3c1)/C(=C1/Cc3cccc4cccc1c34)C2 | 113 % of control
Cc1ccc(NC(=O)c2ccccc2Cl)c(C)c1 | 93 % of control
CCCCN1C(=O)C(=O)N(c2cc(OC)ccc2OC)C1=O | 86 % of control
Cc1nc2ccccc2c(=O)n1-c1ccccc1Cl | 105 % of control
COc1ccc(OC)c(/C=C/c2ccc3ccccc3n2)c1 | 98 % of control
COc1ccc(OC)c(NC(=O)Nc2ccc(C)c([N+](=O)[O-])c2)c1 | 94 % of control
C=CC(=O)CCCC(=O)O | 102 % of control
NC(=O)C(CSCc1ccccc1)NC(=O)OCc1ccccc1 (stereo not drawn) | 88 % of control
O=Cc1ccc(O)c(O)c1 | 109 % of control
O=C(CC(O)(C(F)(F)F)C(F)(F)F)c1ccccc1Cl | 115 % of control
O=C1NC(=O)C(c2ccc(Cl)cc2)N1 (stereo not drawn) | 105 % of control
CCCCCC#CC(=O)OC | 103 % of control

====

tested on: CD2F1 mice, L1210 leukemia ip, survival T/C; test: NCI In Vivo Anticancer Drug Screen. Data for tumor model L1210 Leukemia (intraperitoneal) in CD2F1 (CDF1) mice; settings: endpoint: mean survival time; dose: 50.0 mg/kg/injection; schedule: Q01DX009 (ip); vehicle: saline with Tween-80; higher = longer survival
Inconclusive results and toxic doses are left out. Non-standard residues stand in square brackets, D forms with d. Residues, ends and D or L forms follow the SMILES beside them. ξ: configuration not given here. *: point of attachment. ξV = CC(C)C(N)C(=O)O; ClAc = O=C(CCl)*
Listing of entries alongside the reported T/C.

molecule | target or test system | T/C
C[n+]1c(/C=C/c2ccccc2Cl)ccc2ccccc21 | CD2F1 mice, L1210 leukemia ip, survival T/C | 96 % of control
NC1CCCCC1CC1CCCCC1 (configuration not stated) | CD2F1 mice, L1210 leukemia ip, survival T/C | 103 % of control
Cc1ccc(/C=N/NC(=O)CNC(=O)Nc2cccc(C(F)(F)F)c2)cc1 | CD2F1 mice, L1210 leukemia ip, survival T/C | 92 % of control
CC1(C)C2CCC1(C(=O)O)CC2 | CD2F1 mice, L1210 leukemia ip, survival T/C | 100 % of control
COc1cc(Cl)ccc1C | CD2F1 mice, L1210 leukemia ip, survival T/C | 95 % of control
CC1=CC2=C(C=O)C(=O)[C@](C)(O)[C@@H](O)C2=CO1 | CD2F1 mice, L1210 leukemia ip, survival T/C | 122 % of control
CN(C)S(=O)(=O)c1ccccc1C1(O)c2ccccc2-c2ccccc21 | CD2F1 mice, L1210 leukemia ip, survival T/C | 87 % of control
O=S(=O)(OCC(COS(=O)(=O)c1ccccc1)(COS(=O)(=O)c1ccccc1)COS(=O)(=O)c1ccccc1)c1ccccc1 | CD2F1 mice, L1210 leukemia ip, survival T/C | 96 % of control
CC(=O)Nc1ccccc1C(=O)C(=O)Nc1ccccc1C(=O)NN | CD2F1 mice, L1210 leukemia ip, survival T/C | 95 % of control
CN(C)CCSCC(OC(=O)c1ccccc1)c1ccccc1 (configuration not stated) | CD2F1 mice, L1210 leukemia ip, survival T/C | 98 % of control
CCC(C)C(C(=O)OCCN(C)C)c1ccccc1 (configuration not stated) | CD2F1 mice, L1210 leukemia ip, survival T/C | 100 % of control
COc1cc(Cl)ccc1NC(=O)Nc1ccc(C(=O)O)cc1 | CD2F1 mice, L1210 leukemia ip, survival T/C | 95 % of control
C(=C/C1CCCCC1)/C=C/C1CCCCC1 | CD2F1 mice, L1210 leukemia ip, survival T/C | 103 % of control
COc1ccc(C(Br)C(C)Br)cc1 (configuration not stated) | CD2F1 mice, L1210 leukemia ip, survival T/C | 97 % of control
CCN(CC)C1=C(C)S(=O)(=O)C1c1ccc(C)cc1 (configuration not stated) | CD2F1 mice, L1210 leukemia ip, survival T/C | 102 % of control
CC(C)C(NC(=O)CNC(=O)CCl)C(=O)O (configuration not stated) (ClAc-Gly-[ξV]-OH) | CD2F1 mice, L1210 leukemia ip, survival T/C | 97 % of control
ClC(Cl)(Cl)C1=NCc2nnn(Cc3ccccc3)c2N1 | CD2F1 mice, L1210 leukemia ip, survival T/C | 105 % of control
CCc1c(C)c(C)cc(S(=O)(=O)O)c1C | CD2F1 mice, L1210 leukemia ip, survival T/C | 104 % of control
Nc1cc(Cl)c(Cl)cc1Cl | CD2F1 mice, L1210 leukemia ip, survival T/C | 93 % of control
CC(C)CNC(=O)c1ccc(N=NN(C)Cc2ccncc2)cc1 | CD2F1 mice, L1210 leukemia ip, survival T/C | 104 % of control
COc1cc(OC)c(NC(=O)Oc2ccccc2F)cc1Cl | CD2F1 mice, L1210 leukemia ip, survival T/C | 92 % of control
Cc1ccc2c([N+](=O)[O-])cccc2n1 | CD2F1 mice, L1210 leukemia ip, survival T/C | 96 % of control
Cc1ccc(NC(=O)Oc2ccc(C(C)(C)C)cc2Br)c(C)c1 | CD2F1 mice, L1210 leukemia ip, survival T/C | 101 % of control
Cc1cc(NC(=O)NCc2ccc(N3C(N)=NC(N)=NC3(C)C)cc2)ccc1S(=O)(=O)F | CD2F1 mice, L1210 leukemia ip, survival T/C | 104 % of control
CC1C(=O)OC(C)(C)C1(C)C (configuration not stated) | CD2F1 mice, L1210 leukemia ip, survival T/C | 98 % of control
COc1ccccc1OCCN1Cc2ccccc2C1 | CD2F1 mice, L1210 leukemia ip, survival T/C | 94 % of control
CCCCN(CCCC)C(=S)Nc1ccccc1 | CD2F1 mice, L1210 leukemia ip, survival T/C | 96 % of control
COc1cc(OC)c(NC(=O)Oc2c(Cl)cccc2Cl)cc1Cl | CD2F1 mice, L1210 leukemia ip, survival T/C | 94 % of control
CCCCC(=O)NN | CD2F1 mice, L1210 leukemia ip, survival T/C | 118 % of control
CC(=O)c1cc2c(cc1C(C)C)CC[C@H]1[C@](C)(C#N)CCC[C@]21C | CD2F1 mice, L1210 leukemia ip, survival T/C | 90 % of control
CC(=O)NC(Cc1cc(I)c(OC(C)=O)c(I)c1)C(=O)O (configuration not stated) | CD2F1 mice, L1210 leukemia ip, survival T/C | 93 % of control
O=C(Nc1cc(Cl)ccc1Cl)c1ccc(Cl)cc1Cl | CD2F1 mice, L1210 leukemia ip, survival T/C | 92 % of control

meta.source: PubChem BioAssay AID256
